Reference source: patent US20220112194A1

Molecular target: PRMT5/MEP50 (Homo sapiens)
Assay: PRMT5/MEP50 enzyme inhibition assay, Assay 2 (384-well, MALDI mass spectrometry, SAM, histone H4 1-21 peptide)
Format: biochemical
Details: 1 μM SAM, 0.1 μM histone H4 1-21 peptide, 18-hour incubation at rt
property: IC50

Sample answers from the record:
>  <molecule smiles>
C[C@]1(CCc2ccc3ccc(N)nc3n2)C[C@@H](n2ccc3c(N)ncnc32)[C@H](O)[C@@H]1O

>  <assay value>
< 1 nM

$$$$
>  <molecule smiles>
Cc1cnc2cc(OC[C@@]34C[C@@H]3[C@@H](n3ccc5c(N)ncnc53)[C@H](O)[C@@H]4O)ccn12

>  <assay value>
< 1 nM

$$$$
>  <molecule smiles>
C[C@]1(CCc2cc(F)c3cc(Cl)c(N)nc3c2)C[C@@H](n2ccc3c(N)ncc(F)c32)[C@H](O)[C@@H]1O

>  <assay value>
< 1 nM

$$$$
>  <molecule smiles>
C=C1[C@@H](n2ccc3c(N)ncnc32)[C@H](O)[C@H](O)[C@H]1CCc1ccc2cc(Br)c(N)nc2c1

>  <assay value>
< 1 nM

$$$$

Reported IC50 for PRMT5/MEP50 (Homo sapiens), given Cn1c(N)nc2cc(CC[C@@]3(C)C[C@@H](n4ccc5c(N)ncnc54)[C@H](O)[C@@H]3O)ccc2c1=O ? < 1 nM

IC50 of C[C@]1(CCc2ccc3cc(C#N)c(N)nc3c2)C[C@@H](n2ccc3c(N)ncnc32)[C@H](O)[C@@H]1O on PRMT5/MEP50 (Homo sapiens)? < 1 nM

# get_value(readout= IC50, system= PRMT5/MEP50 (Homo sapiens)) for C[C@]1(CCc2cc(F)c3cc(Cl)c(N)nc3c2)C[C@@H](n2ccc3c(N)nc(Cl)nc32)[C@H](O)[C@@H]1O < 1 nM

====

Below: a set of entries, each annotated with reported IC50.
Target: PRMT5/MEP50 (Homo sapiens, UniProt O14744)
Sequence (O14744 whole entry): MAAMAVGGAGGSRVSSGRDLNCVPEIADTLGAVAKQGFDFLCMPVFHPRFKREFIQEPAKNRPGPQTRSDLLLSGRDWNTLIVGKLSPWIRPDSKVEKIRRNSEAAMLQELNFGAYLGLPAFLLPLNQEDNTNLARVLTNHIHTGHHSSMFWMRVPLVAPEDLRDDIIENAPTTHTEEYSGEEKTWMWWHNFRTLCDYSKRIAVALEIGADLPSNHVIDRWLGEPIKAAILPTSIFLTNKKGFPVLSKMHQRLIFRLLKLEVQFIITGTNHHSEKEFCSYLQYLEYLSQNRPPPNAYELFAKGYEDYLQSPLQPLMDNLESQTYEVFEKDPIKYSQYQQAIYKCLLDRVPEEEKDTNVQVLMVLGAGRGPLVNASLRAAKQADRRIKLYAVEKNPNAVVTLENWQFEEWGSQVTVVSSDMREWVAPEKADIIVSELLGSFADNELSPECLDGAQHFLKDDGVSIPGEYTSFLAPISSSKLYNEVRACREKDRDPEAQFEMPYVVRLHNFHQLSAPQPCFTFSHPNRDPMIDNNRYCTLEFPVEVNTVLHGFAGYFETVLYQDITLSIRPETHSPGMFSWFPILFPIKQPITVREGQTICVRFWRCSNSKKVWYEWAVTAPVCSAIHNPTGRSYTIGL
Sequence (Q9BQA1 whole entry partner): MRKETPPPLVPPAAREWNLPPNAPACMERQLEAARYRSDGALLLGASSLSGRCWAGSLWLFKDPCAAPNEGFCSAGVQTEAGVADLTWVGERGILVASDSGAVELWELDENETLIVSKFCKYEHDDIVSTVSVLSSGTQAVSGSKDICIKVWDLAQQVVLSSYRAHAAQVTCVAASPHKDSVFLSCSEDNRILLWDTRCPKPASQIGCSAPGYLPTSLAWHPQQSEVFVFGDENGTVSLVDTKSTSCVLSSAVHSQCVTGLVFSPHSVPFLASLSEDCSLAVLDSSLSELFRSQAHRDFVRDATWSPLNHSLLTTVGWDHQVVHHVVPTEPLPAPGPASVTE
Assay: PRMT5/MEP50 enzyme inhibition assay, Assay 2 (384-well, MALDI mass spectrometry, SAM, histone H4 1-21 peptide)
Assay type: biochemical
Settings: 1 μM SAM, 0.1 μM histone H4 1-21 peptide, 18-hour incubation at rt

Entry CC(C)C(=O)O[C@H]1[C@H](n2ccc3c(N)ncnc32)C[C@](C)(CCc2ccc3nc(N)ccc3c2)[C@H]1OC(=O)C(C)C : reported IC50 = ? > 100 nM

Given the compound CCCCCOC(=O)Nc1ccc2ccc(CC[C@@]3(C)C[C@@H](c4ccc5c(N)ncnn45)[C@H](O)[C@@H]3O)cc2n1 , what is its reported IC50? > 100 nM

What does the record list as IC50 for C[C@H]1[C@H](CCc2ccc3ccc(N)nc3c2)[C@@H](O)[C@@H](O)[C@@H]1n1ccc2c(N)ncnc21 ? < 1 nM

Fill in the blank: the reported IC50 of C[C@]1(CCc2ccc3cc(Br)c(N)nc3c2)C[C@@H](n2ccc3c(N)ncnc32)[C@H](O)[C@@H]1O is ____. < 1 nM

====

Target: PRMT5/MEP50 (Homo sapiens)
Assay: PRMT5/MEP50 enzyme inhibition assay, Assay 1 (radioisotope filter binding, 3H-SAM, histone H2A)
Assay type: biochemical
Details: 1 μM 3H-SAM, 5 μM histone H2A, 60 min at 30° C.
Procedure: Compounds were tested for inhibition of methyltransferase activity in a radioisotope filter binding assay, similar to previously described in A selective inhibitor of PRMT5 with in vivo and in vitro potency in MCL models. Chan-Penebre et al., Nat Chem Biol. (2015) 11(6):432-7. […] Each reaction was spotted on a filter plate (MultiScreen FB Filter plate, Millipore) and washed 5 times in PBS, after which scintillation fluid was added and signal was detected in a scintillation counter. […]
pIC50: −log10 of the molar value.
property: pIC50

Solved entries (count: 5):
>  <molecule>
C=C1[C@@H](n2ccc3c(N)ncnc32)[C@H](O)[C@H](O)[C@H]1CCc1ccc2cc(Br)c(N)nc2c1 [Compound 4]

>  <target under test>
PRMT5/MEP50 (Homo sapiens)

>  <pIC50>
> 9.00

$$$$
>  <molecule>
Nc1nc2cc(CC[C@@]34C[C@@H]3[C@@H](n3ccc5c(N)ncnc53)[C@H](O)[C@@H]4O)ccc2cc1Br [Compound 2]

>  <target under test>
PRMT5/MEP50 (Homo sapiens)

>  <pIC50>
> 9.00

$$$$
>  <molecule>
C=C1[C@@H](n2ccc3c(N)ncnc32)[C@H](O)[C@H](O)[C@H]1CCc1ccc2cc(Br)c(Cl)nc2c1 [Compound 3]

>  <target under test>
PRMT5/MEP50 (Homo sapiens)

>  <pIC50>
< 7.00

$$$$
>  <molecule>
C[C@H]1[C@H](CCc2ccc3ccc(N)nc3c2)[C@@H](O)[C@@H](O)[C@@H]1n1ccc2c(N)ncnc21 [Compound 5]

>  <target under test>
PRMT5/MEP50 (Homo sapiens)

>  <pIC50>
> 9.00

$$$$
>  <molecule>
C[C@]1(CCc2ccc3cc(Br)c(N)nc3c2)C[C@@H](n2ccc3c(N)ncnc32)[C@H](O)[C@@H]1O [Compound 1]

>  <target under test>
PRMT5/MEP50 (Homo sapiens)

>  <pIC50>
> 9.00

$$$$

Give recorded pIC50 with PRMT5/MEP50 (Homo sapiens) for the following molecule: C[C@@H]1[C@H](CCc2ccc3ccc(N)nc3c2)[C@@H](O)[C@@H](O)[C@@H]1n1ccc2c(N)ncnc21 [Compound 6] 7.00 to 9.00
